Test: Cmax in healthy human plasma at 800 mg for every 12 hrs measured on day 15
Type: ADME, organism-based
Design: dose 800 mg

SMILES INPUT	Cmax
Cc1nc(COc2ccc(C[C@H](NC(=O)O[C@H]3CO[C@H]4OCC[C@H]43)[C@H](O)CN(CC(C)C)S(=O)(=O)c3ccc4c(c3)OCO4)cc2)cs1	49.2 ng/mL

----------
Test: AUC (0-tau) in healthy human plasma at 800 mg for every 12 hrs measured on day 15
Format: ADME, organism-based

COMPOUND	AUC tau at 12 h
Cc1nc(COc2ccc(C[C@H](NC(=O)O[C@H]3CO[C@H]4OCC[C@H]43)[C@H](O)CN(CC(C)C)S(=O)(=O)c3ccc4c(c3)OCO4)cc2)cs1 [BRECANAVIR]	199 ng·h/mL

----------
Assay: Apparent oral clearance in healthy human plasma at 800 mg for every 12 hrs measured on day 15
Type: ADME, organism-based

SMILES INPUT	CL/F, mL/min
Cc1nc(COc2ccc(C[C@H](NC(=O)O[C@H]3CO[C@H]4OCC[C@H]43)[C@H](O)CN(CC(C)C)S(=O)(=O)c3ccc4c(c3)OCO4)cc2)cs1	67000

----------
Assay: Tmax in healthy human plasma at 800 mg measured on day 1
Type: ADME, organism-based

SMILES INPUT	UNITS	Tmax
Cc1nc(COc2ccc(C[C@H](NC(=O)O[C@H]3CO[C@H]4OCC[C@H]43)[C@H](O)CN(CC(C)C)S(=O)(=O)c3ccc4c(c3)OCO4)cc2)cs1	h	2.5

----------
Assay: Tmax in healthy human plasma at 800 mg for every 12 hrs measured on day 15
Format: ADME, organism-based

COMPOUND	Tmax [h]
Cc1nc(COc2ccc(C[C@H](NC(=O)O[C@H]3CO[C@H]4OCC[C@H]43)[C@H](O)CN(CC(C)C)S(=O)(=O)c3ccc4c(c3)OCO4)cc2)cs1 [BRECANAVIR]	3.75
